Test: in vitro
Details: human, CC50 (50% cell cytotoxicity concentration)
Where a name gives a salt, the structure may show the parent alone.
endpoint: CC50 (µM)

>>> endpoint_value("CN(C)CCOc1ccc(/C(=C(/CCCl)c2ccccc2)c2ccccc2)cc1 [Toremifene citrate]")
10.9
>>> endpoint_value("COC1=CC(c2cc3ccccc3[nH]2)=N/C1=C\\c1[nH]c(C)cc1C")
1.5
>>> endpoint_value("O=C(c1ccc(OCCN2CCCCC2)cc1)c1c(-c2ccc(O)cc2)sc2cc(O)ccc12 [Raloxifene (Evista), Raloxifene]")
9.3
>>> endpoint_value("NCC(=O)Nc1ccc(-n2nc(C(F)(F)F)cc2-c2ccc3c(ccc4ccccc43)c2)cc1")
5.5
>>> endpoint_value("COc1c(C)c2c(c(O)c1C/C=C(\\C)CCC(=O)O)C(=O)OC2")
2

---

Tested on: Huh7 cells
Details: 500 nM
Documented Cell Viability (%) Mean across a set of compounds
endpoint: Cell Viability (%) Mean

>>> endpoint_value("C[C@H](Cn1cnc2c(N)ncnc21)OCP(=O)(O)O")
100
>>> endpoint_value("C[C@@]1(O)[C@H](O)[C@@H](CO)O[C@H]1n1ccc2c(N)ncnc21")
103
>>> endpoint_value("C[C@@]1(F)[C@H](O)[C@@H](CO)O[C@H]1n1ccc(N)nc1=O")
96
>>> endpoint_value("Nc1cccc(-c2cc3c(Oc4cccc(O)c4)ncnc3[nH]2)c1")
124
>>> endpoint_value("Cl.Fc1ccc([C@@H]2CCNC[C@H]2COc2ccc3c(c2)OCO3)cc1 [Paroxetine HCl]")
145
>>> endpoint_value("Cc1ccc(Nc2nccc(N(C)c3ccc4c(C)n(C)nc4c3)n2)cc1S(N)(=O)=O.Cl [Pazopanib HCl]")
116

---

Assay: in vitro
Details: human
Documented viability at 5 µM across a set of compounds
endpoint: viability at 5 µM (%)

>>> endpoint_value("[N-]=[N+]=Nc1cn([C@@H]2O[C@H](CO)[C@@H](O)[C@H]2O)c(=O)[nH]c1=O")
104
>>> endpoint_value("[N-]=[N+]=Nc1nc2c(N)ncnc2n1[C@@H]1O[C@H](CO)[C@@H](O)[C@H]1O")
32
>>> endpoint_value("O=c1[nH]c(=O)n([C@@H]2O[C@H](CO)[C@@H](O)[C@H]2O)cc1Br")
100
>>> endpoint_value("Cc1cn([C@@H]2O[C@H](CO)[C@@H](O)[C@H]2O)c(=O)nc1N")
98
>>> endpoint_value("Nc1ccn([C@@H]2O[C@H](CO)[C@@H](O)[C@H]2F)c(=O)n1")
105
>>> endpoint_value("CCOC(=O)C1=C(C)NC(C)=C(C(=O)OCC)C1c1ccccc1/C=C/C(=O)OC(C)(C)C")
98
>>> endpoint_value("O=C(c1ccc(OCCN2CCCCC2)cc1)c1c(-c2ccc(O)cc2)sc2cc(O)ccc12 [Raloxifene (Evista), Raloxifene]")
86
>>> endpoint_value("Cc1c(F)cc(C(=O)NC2CC2)cc1-c1ccc(C(=O)NCC(C)(C)C)cn1")
114
>>> endpoint_value("C[C@@]1(O)[C@H](O)[C@@H](CO)O[C@H]1n1ccc(=O)[nH]c1=O")
97
>>> endpoint_value("COc1cc2ncnc(Nc3cccc(Cl)c3)c2cc1OC")
111
>>> endpoint_value("Nc1ncnc2c([C@@H]3N[C@H](CO)[C@@H](O)[C@H]3O)c[nH]c12")
101
>>> endpoint_value("OC(CNCC(O)C1CCc2cc(F)ccc2O1)C1CCc2cc(F)ccc2O1 (stereo not shown)")
76
>>> endpoint_value("O=C1CCc2ccc(OCCCCN3CCN(c4cccc(Cl)c4Cl)CC3)cc2N1")
59
>>> endpoint_value("CC(C)/N=c1\\cc2n(-c3ccc(Cl)cc3)c3ccccc3nc-2cc1Nc1ccc(Cl)cc1")
102
>>> endpoint_value("CO[C@@H]1[C@H](O)[C@@H](CO)O[C@H]1n1ccc(N)nc1=O")
100
>>> endpoint_value("Clc1ccc(CSC(Cn2ccnc2)c2ccc(Cl)cc2Cl)cc1 (stereo not shown) [Sulconazole nitrate]")
52

---

Documented activity at 5 µM across a set of compounds
Test system: rLUJV/ZsG
Assay: microbe, parasite or virus in culture
Format: cell-based, Lujo virus
Conditions: Mammarenavirus lujoense, Huh-7; 5000 nM; read-out: Relative ZsG (%) Mean
endpoint: activity at 5 µM (%)

>>> endpoint_value("CC(C)(C)c1nc(-c2cccc(NS(=O)(=O)c3c(F)cccc3F)c2F)c(-c2ccnc(N)n2)s1")
22
>>> endpoint_value("COC(=O)C1=C(C)NC(C)=C(C(=O)OC2CCCN(Cc3ccccc3)C2)C1c1cccc([N+](=O)[O-])c1 (centres unmarked)")
61
>>> endpoint_value("O=c1cnn([C@@H]2O[C@H](CO)[C@@H](O)[C@H]2O)c(=O)[nH]1")
78
>>> endpoint_value("NC(=O)c1nc(F)c[nH]c1=O")
22
>>> endpoint_value("COc1ccc2cc1Oc1ccc(cc1)C[C@H]1c3cc(c(OC)cc3CCN1C)Oc1c(OC)c(OC)cc3c1[C@H](C2)N(C)CC3")
2
>>> endpoint_value("C#Cc1cccc(Nc2ncnc3cc(OCCOC)c(OCCOC)cc23)c1")
65
>>> endpoint_value("Cc1cn([C@H]2C=C[C@@H](CO)O2)c(=O)[nH]c1=O")
96
>>> endpoint_value("Nc1nc(Cl)nc2c1ncn2[C@@H]1O[C@H](CO)[C@@H](O)[C@H]1O")
99
>>> endpoint_value("Cc1cccc(/C=N/Nc2cc(N3CCOCC3)nc(OCCc3ccccn3)n2)c1")
24
>>> endpoint_value("CN[C@H]1CC[C@@H](c2ccc(Cl)c(Cl)c2)c2ccccc21")
35
>>> endpoint_value("N#Cc1cn([C@@H]2O[C@H](CO)[C@@H](O)[C@H]2O)c2ncnc(N)c12")
7
>>> endpoint_value("O=c1[nH]c(=O)n([C@@H]2O[C@H](CO)[C@@H](O)[C@H]2O)cc1Br")
106
>>> endpoint_value("O=C1C(O)=C([C@H]2CC[C@H](c3ccc(Cl)cc3)CC2)C(=O)c2ccccc21")
74
>>> endpoint_value("COc1c(C)c2c(c(O)c1C/C=C(\\C)CCC(=O)O)C(=O)OC2")
2
>>> endpoint_value("O=c1c(-c2ccc(O)cc2)coc2cc(O)cc(O)c12")
92
>>> endpoint_value("COC1=CC(c2cc3ccccc3[nH]2)=N/C1=C\\c1[nH]c(C)cc1C")
10
>>> endpoint_value("Cc1c(-c2ccc(-c3ccccc3F)cc2)nc2ccc(F)cc2c1C(=O)O")
2

---

Experiment: in vitro
Conditions: human
Structures can show the parent of a compound that is named as a salt.
endpoint: viability at 5 µM (%)

>>> endpoint_value("CC/C(=C(\\c1ccccc1)c1ccc(OCCN(C)C)cc1)c1ccccc1 [Tamoxifene citrate]")
85
>>> endpoint_value("NC(=O)c1ncn([C@@H]2O[C@H](CO)[C@@H](O)[C@H]2O)n1 [Ribavirin]")
133
>>> endpoint_value("CC(C)C(=O)OC[C@@]1(N=[N+]=[N-])O[C@@H](n2ccc(N)nc2=O)[C@H](OC(=O)C(C)C)[C@@H]1OC(=O)C(C)C [Balapiravir (R1626), Balapiravir]")
99
>>> endpoint_value("CC(C)(C)c1nc(-c2cccc(NS(=O)(=O)c3c(F)cccc3F)c2F)c(-c2ccnc(N)n2)s1 [Dabrafenib]")
68
>>> endpoint_value("NCC(=O)Nc1ccc(-n2nc(C(F)(F)F)cc2-c2ccc3c(ccc4ccccc43)c2)cc1 [AR-12]")
1
>>> endpoint_value("NC(=O)c1nc(F)c[nH]c1=O [Favipiravir (T-705), Favipiravir]")
96
>>> endpoint_value("CN1[C@@H]2CC[C@H]1C[C@@H](OC(c1ccccc1)c1ccccc1)C2 [Benztropine mesylate]")
108
>>> endpoint_value("C#Cc1cccc(Nc2ncnc3cc(OCCOC)c(OCCOC)cc23)c1 [Erlotinib]")
110
>>> endpoint_value("Nc1ncnc2c1nnn2[C@@H]1O[C@H](CO)[C@@H](O)[C@H]1O [8-azaadenosine]")
47

---

Documented activity at 5 µM across a set of compounds
System: rLUJV/ZsG
Experiment: microbe, parasite or virus in culture
Type: cell-based, Lujo virus
Details: Mammarenavirus lujoense, Huh-7; 5000 nM; read-out: Relative ZsG (%) Mean
Structures can show the parent of a compound that is named as a salt.
endpoint: activity at 5 µM (%)

>>> endpoint_value("CN(C)CCOc1ccc(/C(=C(/CCCl)c2ccccc2)c2ccccc2)cc1 [Toremifene citrate]")
9
>>> endpoint_value("Cc1c(-c2ccc(O)cc2)n(Cc2ccc(OCCN3CCCCCC3)cc2)c2ccc(O)cc12 [Bazedoxifene HCL]")
2
>>> endpoint_value("Nc1ccn([C@@H]2O[C@H](CO)[C@@H](O)[C@H]2F)c(=O)n1")
2
>>> endpoint_value("COc1cc2ncnc(Nc3cccc(Cl)c3)c2cc1OC")
87
